# System: Klebsiella pneumoniae ATCC 10031
# procedure.details: Antibacterial activity, MIC
# Type: cell-based
# condition.label: ATCC10031, ATCC 10031, agar two-fold dilution, 37° C., 20 hours, read-out: MIC
# MIC annotations

[
  {
    "molecule": "CC(C)(O/N=C(\\C(=O)NC1C(=O)N2C(C(=O)[O-])=C(CSc3nc(N)cc(N)[n+]3-c3ccc(O)cc3)CSC12)c1csc(N)n1)C(=O)O (stereo not drawn) [Compound I-36]",
    "value.modifier": "=",
    "MIC, µg/mL": 0.13
  },
  {
    "molecule": "CC[n+]1c(N)cc(N)nc1SCC1=C(C(=O)[O-])N2C(=O)C(NC(=O)/C(=N\\OC(C)(C)C(=O)O)c3nsc(N)n3)C2SC1 (stereo not drawn) [Compound I-27]",
    "value.modifier": "=",
    "MIC, µg/mL": 0.063
  },
  {
    "molecule": "CCO/N=C(\\C(=O)NC1C(=O)N2C(C(=O)[O-])=C(CSc3nc(N)cc(N)[n+]3N)CSC12)c1csc(N)n1 (stereo not drawn) [Compound I-16]",
    "value.modifier": "≤",
    "MIC, µg/mL": 0.008
  }
]

---

# Tested on: Bacillus cereus ATCC 11778
# procedure.details: Antibacterial activity, MIC
# Assay type: cell-based
# condition.label: ATCC11778, ATCC 11778, agar two-fold dilution, 37° C., 20 hours, read-out: MIC

[
  {
    "compound": "CCO/N=C(\\C(=O)NC1C(=O)N2C(C(=O)[O-])=C(CSc3nc(N)cc(N)[n+]3C)CSC12)c1nsc(N)n1 (stereo not shown)",
    "MIC": "32 µg/mL"
  },
  {
    "compound": "CC[n+]1c(N)cc(N)nc1SCC1=C(C(=O)[O-])N2C(=O)C(NC(=O)/C(=N\\OC(C)C(=O)O)c3csc(N)n3)C2SC1 (stereo not shown)",
    "MIC": "128 µg/mL"
  },
  {
    "compound": "CO/N=C(\\C(=O)NC1C(=O)N2C(C(=O)[O-])=C(CSc3nc(N)cc(N)[n+]3C)CSC12)c1nsc(N)n1 (stereo not shown)",
    "MIC": "32 µg/mL"
  },
  {
    "compound": "CC[n+]1c(SCC2=C(C(=O)[O-])N3C(=O)C(NC(=O)/C(=N\\OC(C)(C)C(=O)O)c4csc(N)n4)C3SC2)nc(N)c(C)c1N (stereo not shown)",
    "MIC": "64 µg/mL"
  },
  {
    "compound": "C[n+]1c(N)cc(N)nc1SCC1=C(C(=O)[O-])N2C(=O)C(NC(=O)/C(=N\\OC(C)(C)C(=O)O)c3nsc(N)n3)C2SC1 (stereo not shown)",
    "MIC": "> 128 µg/mL"
  },
  {
    "compound": "CCO/N=C(\\C(=O)NC1C(=O)N2C(C(=O)[O-])=C(CSc3nc(N)cc(N)[n+]3CC)CSC12)c1nsc(N)n1 (stereo not shown)",
    "MIC": "16 µg/mL"
  },
  {
    "compound": "CCC[n+]1c(N)cc(N)nc1SCC1=C(C(=O)[O-])N2C(=O)C(NC(=O)/C(=N\\OC(C)(C)C(=O)O)c3nsc(N)n3)C2SC1 (stereo not shown)",
    "MIC": "128 µg/mL"
  },
  {
    "compound": "CCO/N=C(\\C(=O)NC1C(=O)N2C(C(=O)[O-])=C(CSc3nc(N)cc(N)[n+]3-c3ccc(Cl)cc3)CSC12)c1csc(N)n1 (stereo not shown)",
    "MIC": "16 µg/mL"
  },
  {
    "compound": "C=CC[n+]1c(N)cc(N)nc1SCC1=C(C(=O)[O-])N2C(=O)C(NC(=O)/C(=N\\OC(C)C(=O)O)c3csc(N)n3)C2SC1 (stereo not shown)",
    "MIC": "128 µg/mL"
  },
  {
    "compound": "C=CCO/N=C(\\C(=O)NC1C(=O)N2C(C(=O)[O-])=C(CSc3nc(N)cc(N)[n+]3C)CSC12)c1csc(N)n1 (stereo not shown)",
    "MIC": "32 µg/mL"
  },
  {
    "compound": "CC[n+]1c(N)cc(N)nc1SCC1=C(C(=O)[O-])N2C(=O)C(NC(=O)/C(=N\\OC(C)(C)C(=O)O)c3csc(N)n3)C2SC1 (stereo not shown)",
    "MIC": "64 µg/mL"
  },
  {
    "compound": "CCO/N=C(\\C(=O)NC1C(=O)N2C(C(=O)[O-])=C(CSc3nc(N)cc(N)[n+]3CC)CSC12)c1csc(N)n1 (stereo not shown)",
    "MIC": "16 µg/mL"
  },
  {
    "compound": "C#CCO/N=C(\\C(=O)NC1C(=O)N2C(C(=O)[O-])=C(CSc3nc(N)cc(N)[n+]3N)CSC12)c1csc(N)n1 (stereo not shown)",
    "MIC": "8 µg/mL"
  }
]

---

# MIC annotations
# System: Klebsiella pneumoniae ATCC 10031
# procedure.details: Antibacterial activity, MIC
# Assay type: cell-based
# condition.label: ATCC10031, ATCC 10031, agar two-fold dilution, 37° C., 20 hours, read-out: MIC

[
  {
    "molecule": "C[n+]1c(N)cc(N)nc1SCC1=C(C(=O)[O-])N2C(=O)C(NC(=O)/C(=N\\OC(C)(C)C(=O)O)c3csc(N)n3)[C@H]2SC1 (stereo partly drawn)",
    "readout.unit": "µg/mL",
    "MIC": 0.063
  },
  {
    "molecule": "CCO/N=C(\\C(=O)NC1C(=O)N2C(C(=O)[O-])=C(CSc3nc(N)cc(N)[n+]3-c3ccc(Cl)cc3)CSC12)c1csc(N)n1 (stereo not drawn)",
    "readout.unit": "µg/mL",
    "MIC": 0.031
  },
  {
    "molecule": "CCO/N=C(\\C(=O)NC1C(=O)N2C(C(=O)[O-])=C(CSc3nc(N)cc(N)[n+]3CC)CSC12)c1nsc(N)n1 (stereo not drawn)",
    "readout.unit": "µg/mL",
    "MIC": 0.016
  }
]

---

# procedure.details: In-vivo absorbency (plasma concentrations & pharmacokinetic parameters)
# Design: species or system SD rat (male)
# condition.label: rat, plasma, iv, 20 mg/kg, SD male rat, iv 20 mg/kg; two compartment model; read-out: T1/2 (β)
observable: half-life (min)

[
  {
    "compound": "CC(O/N=C(\\C(=O)NC1C(=O)N2C(C(=O)[O-])=C(CSc3nc(N)cc(N)[n+]3C)CSC12)c1csc(N)n1)C(=O)O (stereo not drawn) [Compound I-4]",
    "data.value": 26
  },
  {
    "compound": "CC[n+]1c(N)cc(N)nc1SCC1=C(C(=O)[O-])N2C(=O)C(NC(=O)/C(=N\\OCC(=O)O)c3csc(N)n3)C2SC1 (stereo not drawn) [Compound I-8]",
    "data.value": 32
  },
  {
    "compound": "CCc1c(N)nc(SCC2=C(C(=O)[O-])N3C(=O)C(NC(=O)/C(=N\\OC(C)(C)C(=O)O)c4csc(N)n4)C3SC2)[n+](CC)c1N (stereo not drawn) [Compound I-33]",
    "data.value": 24
  },
  {
    "compound": "CC[n+]1c(SCC2=C(C(=O)[O-])N3C(=O)C(NC(=O)/C(=N\\OC(C)(C)C(=O)O)c4csc(N)n4)C3SC2)nc(N)c(C)c1N (stereo not drawn) [Compound I-32]",
    "data.value": 29
  },
  {
    "compound": "Cc1c(N)nc(SCC2=C(C(=O)[O-])N3C(=O)C(NC(=O)/C(=N\\OC(C)(C)C(=O)O)c4csc(N)n4)C3SC2)[n+](C)c1N (stereo not drawn) [Compound I-30]",
    "data.value": 30
  },
  {
    "compound": "CCC[n+]1c(N)cc(N)nc1SCC1=C(C(=O)[O-])N2C(=O)C(NC(=O)/C(=N\\OC(C)C(=O)O)c3csc(N)n3)C2SC1 (stereo not drawn) [Compound I-45]",
    "data.value": 38
  }
]

---

# MIC annotations
# Tested on: Citrobacter freundii ATCC 8090
# procedure.details: Antibacterial activity, MIC
# Type: cell-based
# condition.label: ATCC8090, ATCC 8090, agar two-fold dilution, 37° C., 20 hours, read-out: MIC
observable: MIC (µg/mL)

[
  {
    "compound": "C=CC[n+]1c(N)cc(N)nc1SCC1=C(C(=O)[O-])N2C(=O)C(NC(=O)/C(=N\\OCC)c3nsc(N)n3)C2SC1 (stereo not drawn) [Compound I-23]",
    "data.value": 0.25
  },
  {
    "compound": "CCO/N=C(\\C(=O)NC1C(=O)N2C(C(=O)[O-])=C(CSc3nc(N)cc(N)[n+]3CC)CSC12)c1nsc(N)n1 (stereo not drawn) [Compound I-21]",
    "data.value": 0.13
  },
  {
    "compound": "CC(C)(O/N=C(\\C(=O)NC1C(=O)N2C(C(=O)[O-])=C(CSc3nc(N)cc(N)[n+]3N)CSC12)c1nsc(N)n1)C(=O)O (stereo not drawn) [Compound I-13]",
    "data.value": 0.13
  }
]
